// provenance: ChEMBL document CHEMBL1201862

Test system: 786-0
Assay name: NCI tumour cell line growth inhibition, 48 h
Calls of active or inactive are those of the source. Rule as the data show it: active = GI50 up to about 1.1 µM and inactive = higher.
Answer with one of the outcomes given here: T (active), F (inactive)

In: Entry CN1C/C(=C\c2ccccc2[N+](=O)[O-])C(=O)/C(=C/c2ccccc2[N+](=O)[O-])C1 : call = ?
Out: T

In: Entry CCc1ccccc1NC(=O)C1=C(C)NC(C)=C(C(=O)Nc2ccccc2CC)C1c1cccc([N+](=O)[O-])c1 : call = ?
Out: F

In: Entry CCC1C(c2cc(OC)c(OC)c(OC)c2)c2cc3c(cc2OC1N1CCOCC1)OCO3 (stereo not given) : call = ?
Out: F

In: Entry C(=C\C(Sc1ccccc1)c1ccccc1)/NNC1=NN=C(c2ccccc2)C(c2ccccc2)N1 (stereo not given) : call = ?
Out: F

In: Entry CN(C)C1(N(C)C)Oc2c(c(=O)n(C)c(=O)n2C)C(c2ccc(F)cc2)C1(F)F (stereo not given) : call = ?
Out: F

In: Entry CCN(CC)CCNc1ccc2ncn3c4c(OC)cccc4c(=O)c1c23 : call = ?
Out: F

In: Entry COc1ccc(NC(=O)CCc2cc(-c3ccc(O)c(OC)c3)nc(NC#N)n2)cc1 : call = ?
Out: F

In: Entry CC(=O)O[C@@H]1CC[C@@]2(C)C(=O)C34C[C@@]5(C)C([C@@H](C)CCCC(C)C)CCC5(C)[C@](O)(O3)C(=O)[C@H]4C2C1(C)C (stereo not given in full) : call = ?
Out: F

In: Entry N#CC(C(=O)C(=O)Nc1ccccc1)c1ccccc1 (stereo not given) : call = ?
Out: F

In: Entry N=c1oc2ccc3ccccc3c2cc1-c1nc(O)c2ccccc2n1 : call = ?
Out: F

In: Entry Cc1cccc(C)c1NC(=O)CCCC(=O)C(C#N)c1ccc(Cl)cc1 (stereo not given) : call = ?
Out: F

In: Entry CCOC(=O)C1CCC/C1=N\NC(=N)N.Cc1cc(O)c(C(C)C)cc1S(=O)(=O)O (stereo not given) : call = ?
Out: F

In: Entry Cc1cc2c(cc1C)C(=O)C1(C2)Cc2c(ccc(C)c2C)C1=O (stereo not given) : call = ?
Out: F

In: Entry CC1=C(C2=C(C)C(=O)C(=O)c3cc(C)ccc32)c2ccc(C)cc2C(=O)C1=O : call = ?
Out: T

In: Entry COc1ccc(-c2cc(=O)c3c(O)cccc3o2)c(OC)c1OC : call = ?
Out: F

In: Entry CCC[C@H](C)C[C@H](C)C[C@H](C)/C=C(\C)[C@@H](O)[C@@H](C)C(=O)CC : call = ?
Out: F

In: Entry CCCCCCCCCC(=O)N[C@H]1CCc2cc(OC)c(OC)c(OC)c2-c2ccc(SC)c(=O)cc21 : call = ?
Out: T

In: Entry CCCCCCCCCCCCc1ccsc1-c1ccc(-c2ccc(-c3sc(-c4cc(CCCCCCCCCCCC)c(-c5ccc(-c6ccc(-c7sccc7CCCCCCCCCCCC)s6)s5)s4)cc3CCCCCCCCCCCC)s2)s1 : call = ?
Out: F

In: Entry O=C1c2ccccc2N1C(=O)c1ccccc1[N+](=O)[O-] : call = ?
Out: F

In: Entry CN(C)CCNC(=O)c1cccc2c1nc(-c1ccc(F)cc1)c1ccccc12 : call = ?
Out: F

====

Test system: OVCAR-8
Assay name: NCI tumour cell line growth inhibition, 48 h
Active and inactive are the calls of the source. No stated cut-off is given here; in the data, active = GI50 up to about 1.1 µM and inactive = higher.
Reported metric: GI50

In: Request body: readout GI50, system OVCAR-8, query CC1=C(C(=O)Nc2ccccc2)C(c2ccc(N(C)C)cc2)C(C(=O)Nc2ccccc2)=C(C)N1 . Return the value.
Out: 11.9 µM (inactive)

In: Request body: readout GI50, system OVCAR-8, query COc1cc(C2SCC(=O)N2c2ccc(-n3c(-c4ccccc4)nc4ccccc4c3=O)cc2)ccc1O (centres undefined) . Return the value.
Out: > 100 µM (inactive)

In: Request body: readout GI50, system OVCAR-8, query Nc1ccc2[nH]cc(CCC(=O)O)c2c1 . Return the value.
Out: > 100 µM (inactive)

In: Request body: readout GI50, system OVCAR-8, query N#Cc1cc([N+](=O)[O-])ccc1NC(=O)C(=O)Nn1c(S)nc2ccccc2c1=O . Return the value.
Out: > 100 µM (inactive)

====

System: LOX IMVI
Assay name: NCI tumour cell line growth inhibition, 48 h
Counter-ions that a name gives are not always drawn. Activity calls are given as the source filed them. Rule as the data show it: active = GI50 up to about 1.1 µM and inactive = higher.
Reported metric: GI50

In: Request body: readout GI50, system LOX IMVI, query COc1cc(-c2cc(=O)c3ccccc3o2)ccc1N . Return the value.
Out: 51.1 µM (inactive)

In: Request body: readout GI50, system LOX IMVI, query O=C(Nc1ccc2nc(-c3ccccc3)cn2c1)Oc1ccccc1 . Return the value.
Out: 52 µM (inactive)

In: Request body: readout GI50, system LOX IMVI, query CC1=C(C(=O)Nc2ccccc2)C(c2ccc(N(C)C)cc2)C(C(=O)Nc2ccccc2)=C(C)N1 . Return the value.
Out: 2.82 µM (inactive)

In: Request body: readout GI50, system LOX IMVI, query COc1cccc(NC(=O)c2c(SC)c(C#N)c(=O)n(N)c2N)c1 . Return the value.
Out: 88.1 µM (inactive)

In: Request body: readout GI50, system LOX IMVI, query CCCCCNC(=O)c1cc2cc(CCl)ccc2oc1=O . Return the value.
Out: 17.3 µM (inactive)

In: Request body: readout GI50, system LOX IMVI, query NCC1CCCCC1.O=C(O)NCC1CCCCC1 . Return the value.
Out: 15.3 µM (inactive)

In: Request body: readout GI50, system LOX IMVI, query Cc1sc2nc3n(c(=O)c2c1C)N=CN(c1ccccc1)C3 . Return the value.
Out: > 100 µM (inactive)

In: Request body: readout GI50, system LOX IMVI, query Cc1cccc(C(C)C)c1NC(=O)CCl . Return the value.
Out: 37.1 µM (inactive)

In: Request body: readout GI50, system LOX IMVI, query N#CC(Cl)CS(=O)(=O)c1ccccc1 (stereo not given) . Return the value.
Out: 7.14 µM (inactive)

In: Request body: readout GI50, system LOX IMVI, query CCCCCC(=O)N[C@H]1CCc2cc(O)c(O)c(O)c2-c2ccc(SC)c(=O)cc21 . Return the value.
Out: 23.1 µM (inactive)

In: Request body: readout GI50, system LOX IMVI, query CC(=O)/C(=N\O)C(=O)NCc1ccccc1 . Return the value.
Out: 20.2 µM (inactive)

In: Request body: readout GI50, system LOX IMVI, query OC(COc1ccccc1)CN1CCCCC1 (stereo not given) . Return the value.
Out: > 100 µM (inactive)

In: Request body: readout GI50, system LOX IMVI, query COc1cc2c(cc1OC)C(C1(O)CCCCC1)NCC2 (stereo not given) . Return the value.
Out: > 100 µM (inactive)

In: Request body: readout GI50, system LOX IMVI, query CCCc1cn2c(/C=N/NC(=N)N)c(-c3ccc(Cl)c([N+](=O)[O-])c3)nc2s1 . Return the value.
Out: 1.7 µM (inactive)

In: Request body: readout GI50, system LOX IMVI, query CC(C)(/N=N/C(C)(C)C(=N)N)C(=N)N . Return the value.
Out: > 100 µM (inactive)

In: Request body: readout GI50, system LOX IMVI, query COc1cc(CSc2ccc(O)cc2)cc(OC)c1OC . Return the value.
Out: 59.8 µM (inactive)

In: Request body: readout GI50, system LOX IMVI, query Cc1ccnc2nc(-c3cccc(Cl)c3)cc(O)c12 . Return the value.
Out: 0.155 µM (active)

In: Request body: readout GI50, system LOX IMVI, query Brc1cc2nn(-c3ccccc3)nc2c2nonc12 . Return the value.
Out: > 100 µM (inactive)

In: Request body: readout GI50, system LOX IMVI, query CC1(C)O[C@@H](CP(c2cccc3ccccc23)c2cccc3ccccc23)[C@H](CP(c2cccc3ccccc23)c2cccc3ccccc23)O1 . Return the value.
Out: > 100 µM (inactive)

In: Request body: readout GI50, system LOX IMVI, query CN[C@@H]1[C@H](O)[C@H](NC)[C@H]2O[C@@]3(O)C(=O)C[C@@H](C)O[C@H]3O[C@@H]2[C@H]1O [SPECTINOMYCIN SULFATE] . Return the value.
Out: > 100 µM (inactive)

In: Request body: readout GI50, system LOX IMVI, query O=C(Cc1ccccc1)NN1C(=O)C(Cl)C1c1cccc(O)c1 (stereo not given) . Return the value.
Out: 13.5 µM (inactive)

In: Request body: readout GI50, system LOX IMVI, query Cc1ccc(NC(=S)C#N)cc1Cl . Return the value.
Out: 42.3 µM (inactive)

In: Request body: readout GI50, system LOX IMVI, query COC(=O)c1c(O)ccc2c1c1c(n2Cc2ccc(OC)cc2)C(=O)c2ccccc2C1 . Return the value.
Out: 57.7 µM (inactive)

In: Request body: readout GI50, system LOX IMVI, query Cc1ccc(S(=O)(=O)[C@@H](Cl)[C@H]2N=C(Cl)NN=C2c2ccccc2)cc1 . Return the value.
Out: 19.1 µM (inactive)

In: Request body: readout GI50, system LOX IMVI, query Cc1cc2c(cc1C)C(=O)C1(C2)Cc2c(ccc(C)c2C)C1=O (stereo not given) . Return the value.
Out: > 100 µM (inactive)
